Assay: Human HepG2 cell viability assay in 384 well format
Format: toxicity, cell-based
Design: dose 125 nL, time 70.5 hour; concentration not given beside the values
Details: HepG2 cells, read-out: Inhibition
Listed here: items and their measured cytotoxicity at 70.5 h.
Give the quantity in %, number only.

Example entries and their recorded answers appear below.
* c1cc(CCN2CCCC2CN2CCCCC2)ccn1 (configuration not stated) | 25.4
* Cn1c(C2CC2)nc2c1CCN(CC(=O)NC1CCCCNC1=O)C2 (configuration not stated) | -7.85
* CN(C)C(CNCc1nc(-c2ccsc2)no1)c1ccsc1 (configuration not stated) | 4.31
* Cc1cc(F)ccc1S(=O)(=O)NCc1cccc(C(=O)N2CCCC2)c1 | -14.8
* O=C(CCc1ccco1)Nc1cc(C(F)(F)F)c[nH]c1=O | -8.18

Fill blank: measured cytotoxicity at 70.5 h of the molecule Cc1cc(SC(C)(C)C)ccc1NC(C)C(=O)NC(N)=O (configuration not stated) is ____.
9.69

Now the molecule CCN1CCC(CNC(=O)Nc2cc(C)on2)C1 (configuration not stated)
-4.44

Moving on to CN(Cc1cccnc1)CC1CC12CCN(Cc1nccs1)CC2 (configuration not stated)
2.96

// same read-out, input: COCCn1cc2c(n1)C(CNCc1ccsc1)OCC2 (configuration not stated)
-14.8

Also need O=C1CSC(c2cccnc2)c2c(n(C3CCOCC3)[nH]c2=O)N1 (configuration not stated) , thanks.
-24.2

Consider next the molecule `Cc1nc(CC(=O)N2CCC(c3ccn4nccc4n3)CC2)cs1` in the same way.
1.76

What do you get for `Cn1cc(N2CC3(CCN(Cc4ccsc4)CC3)OCC2=O)cn1` ?
13.1

###

Listed here: items and their measured cytotoxicity at 70.5 h.
Assay: Human HepG2 cell viability assay in 384 well format
Assay type: toxicity, cell-based
Parameters: dose 125 nL, time 70.5 hour; concentration not given beside the values
Conditions: HepG2 cells, read-out: Inhibition
Give just the number in %; leave the unit off.

# example entries with known answers
• COCCn1c(=O)n(C)c(=O)c2ccc(C3CCC(CN)CC3)nc21 (stereo unspecified) = -6.32
• Cc1nc(C2CCCN(C(=O)C(C)(C)n3cc(Cl)cn3)C2)no1 (stereo unspecified) = -13.5
• COc1ccc(OC)c(-c2nc(CN(C)Cc3nncn3C)c(C)o2)c1 = -6.73

Using the record for N#Cc1cccc(CN2CCCC2Cn2cccn2)c1 (stereo unspecified) , report its cytotoxicity at 70.5 h.
-1.88

Also `CCCc1nnc(N2CCN(c3cccc(OC)c3)C(=O)C2)o1` , if possible.
15.6

Same question for CC(O)CNC(=O)CCc1nc2ncccc2[nH]1 (stereo unspecified) please.
-29.9

###

Test: Human HepG2 cell viability assay in 384 well format
Type: toxicity, cell-based
Set-up: dose 125 nL, time 70.5 hour; concentration not given beside the values
Conditions: HepG2 cells, read-out: Inhibition
Measured cytotoxicity at 70.5 h of individual entries
Expressed in %, but write only the number.

Answered examples (5):
* CN(Cc1ccc(F)cc1)C(=O)CN1CCOC(Cn2cncn2)C1 (stereo unspecified) | 40.3
* Cc1cc(C(F)(F)F)cc(N2CCN(Cc3ccccc3)CC(O)C2)n1 (stereo unspecified) | 3.5
* CN(C)C(=O)N1CCN(C(=O)CCc2ccccc2)[C@H]2CS(=O)(=O)C[C@H]21 | -5.59
* Cc1nn(C)c(Cl)c1C1CCCN1C(=O)c1cc(Cl)c[nH]1 (stereo unspecified) | -17.6
* c1ccc(C[C@H]2[C@H](N3CCOCC3)CCN2Cc2cccnc2)cc1 | 2.51

I would be grateful if you could share the reported cytotoxicity at 70.5 h for Cc1cccc(CC(=O)N2CCOCC2c2c(C)n[nH]c2C)c1 (stereo unspecified) .
-18.3

Follow-up item: CNC(=O)C1CCCN1C(=O)NCCCc1cccc(F)c1 (stereo unspecified)
1.01

Same read-out for Cc1csc(N2CCN(CCc3ccccn3)CC2C)n1 (stereo unspecified) ?
-10.7

Likewise for Cn1c2c(ccc1=O)CC(Nc1ncc(F)cn1)CC2 (stereo unspecified) ?
-11.5

How about this molecule: CCc1noc(C(C)N2CCN(C)CC2)n1 (stereo unspecified)
-7.05

Same read-out for `CC[C@@]1(O)CCN(C(=O)c2ccc(-c3cccc(F)c3)cc2)C[C@H]1O` ?
-7.02

Numbers sourced from ChEMBL document CHEMBL3507680.
